experiment: Pharmacokinetics in rats, i.v.; type: in vivo; settings: SD, plasma, iv, 1 umol/kg; rat, 1 μmol/kg i.v., n = 5

molecule: CC[C@H](C)[C@H](NC(=O)[C@H](CCC(=O)O)NC(=O)[C@H](CCC(=O)O)NC(=O)[C@H](Cc1ccccc1)NC(=O)[C@H](CC(=O)O)NC(=O)CNC(=O)[C@H](CC(N)=O)NC(=O)CNC(=O)CNC(=O)CNC(=O)CNC(=O)[C@@H]1CCCN1C(=O)[C@H](CCCNC(=N)N)NC(=O)[C@@H]1CCCN1C(=O)[C@H](N)Cc1ccccc1)C(=O)N1CCC[C@H]1C(=O)N[C@@H](CCC(=O)O)C(=O)N[C@@H](CCC(=O)O)C(=O)N[C@@H](Cc1ccc(O)cc1)C(=O)N[C@@H](CC(C)C)C(=O)O [Hirulog-1, reference compound]
Cmax: 3.1 µM
